Assay: inhibitors of PAF-induced NFkB signaling in CF airway cells, dose response, cell-based, uHTS hits, panel, cytotoxicity readout (AID 624344)
Conditions: CF bronchial epithelial cells, PAF-induced NFkB reporter inhibition, with PAF, run 2; at 79 µM (top of the series) unless noted
measured-parameter: inhibition (%)

compound=Cc1cc(C)cc(NS(=O)(=O)c2ccc(-c3cnc(C4CC4)o3)cc2)c1 scale_unit=% quantitative_readout=106
compound=Cn1c(Sc2ccc(Cl)cc2)c(C=O)c2ccccc21 scale_unit=% quantitative_readout=107
compound=CC(C)Nc1ncnc2ccc(Br)cc12 scale_unit=% quantitative_readout=104
compound=COc1ccc(-n2c(C)c(C(C)=O)c3cc(O)ccc32)cc1 scale_unit=% quantitative_readout=95.2
compound="CC(C)(C)S(=O)N1Cc2cc(C(=O)NCC(F)(F)F)nc(-c3cccc(-c4cccc(F)c4)c3)c2[C@@H]1CCO (stereo not given in full)" scale_unit=% quantitative_readout=103
